# procedureText: in vitro
# recordedConditions: human, HepG2 cells
property: selectivity ratio
Answer with the value's number alone.

Example results:
compound: CCOC(=O)C1=C(C)Oc2nc3c(c(N)c2C1c1cc2ccccc2nc1Cl)CCCC3 (stereo not drawn)
selectivity ratio: 27

compound: COc1ccc2cc(C3C4=C(CC(C)(C)CC4=O)Oc4nc5c(c(N)c43)CCC5)c(Cl)nc2c1 (stereo not drawn)
selectivity ratio: 11

Which selectivity ratio value is on record for COC(=O)C1=C(C)Oc2nc3c(c(N)c2C1c1cc2ccc(OC)cc2nc1Cl)CCCC3 (stereo not drawn) ?
3.4

###

Parameter viability at 24 h, 0.1 µM: see the listing below.
# procedureText: in vitro
# recordedConditions: human, SH-SY5Y cells
# Description: Neurotoxicity in human SH-SY5Y cells assessed as cell viability at 0.1 uM after 24 hrs by XTT assay relative to control
Numeric only. Scale: %

compound: COc1ccc2cc(C3C4=C(CC(C)(C)CC4=O)Oc4nc5c(c(N)c43)CCCC5)c(Cl)nc2c1 (stereo not drawn)
viability at 24 h, 0.1 µM (%): 93.8

Given the compound CCOC(=O)C1=C(C)Oc2nc3c(c(N)c2C1c1cc2cc(C)ccc2nc1Cl)CCCC3 (stereo not drawn) , what is its reported viability at 24 h, 0.1 µM?
90.1

State the recorded viability at 24 h, 0.1 µM for this entry: COC(=O)C1=C(C)Oc2nc3c(c(N)c2C1c1cc2ccc(OC)cc2nc1Cl)CCCCC3 (stereo not drawn)
90.8

Quick one: viability at 24 h, 0.1 µM for CCOC(=O)C1=C(C)Oc2nc3c(c(N)c2C1c1cc2ccccc2nc1Cl)CCCC3 (stereo not drawn) ?
110

Record request: viability at 24 h, 0.1 µM value, item CCOC(=O)C1=C(C)Oc2nc3c(c(N)c2C1c1cc2ccc(OC)cc2nc1Cl)CCCC3 (stereo not drawn)
103

Would you mind telling me what viability at 24 h, 0.1 µM value was observed for COc1ccc2cc(C3C4=C(CC(C)(C)CC4=O)Oc4nc5c(c(N)c43)CCCCC5)c(Cl)nc2c1 (stereo not drawn) ?
92.2

Give its viability at 24 h, 0.1 µM value. Item: CCOC(=O)C1=C(C)Oc2nc3c(c(N)c2C1c1cc2ccc(OC)cc2nc1Cl)CCCCC3 (stereo not drawn)
84.2

Which viability at 24 h, 0.1 µM reading was recorded for the compound COC(=O)C1=C(C)Oc2nc3c(c(N)c2C1c1cc2ccc(OC)cc2nc1Cl)CCCC3 (stereo not drawn) ?
128

###

# procedureText: in vitro
# recordedConditions: human, SH-SY5Y cells
# Description: Neurotoxicity in human SH-SY5Y cells assessed as cell viability at 5 uM after 24 hrs by XTT assay relative to control
# viability at 24 h, 5 µM listing for each entry below
Just the number in %, nothing appended.

A selection of reference data follows.
compound: COc1ccc2cc(C3C4=C(CC(C)(C)CC4=O)Oc4nc5c(c(N)c43)CCCC5)c(Cl)nc2c1 (stereo not drawn)
reportedResult: 113

compound: CCOC(=O)C1=C(C)Oc2nc3c(c(N)c2C1c1cc2cc(OC)ccc2nc1Cl)CCCC3 (stereo not drawn)
reportedResult: 135

compound: COC(=O)C1=C(C)Oc2nc3c(c(N)c2C1c1cc2ccc(OC)cc2nc1Cl)CCCCC3 (stereo not drawn)
reportedResult: 95.9

I would be grateful if you could share the reported viability at 24 h, 5 µM for COc1ccc2cc(C3C4=C(CC(C)(C)CC4=O)Oc4nc5c(c(N)c43)CCC5)c(Cl)nc2c1 (stereo not drawn) .
113

GET /values?readout=viability at 24 h, 5 µM&item= COc1ccc2cc(C3C4=C(CC(C)(C)CC4=O)Oc4nc5c(c(N)c43)CCCCC5)c(Cl)nc2c1 (stereo not drawn)
111

Look up viability at 24 h, 5 µM: CCOC(=O)C1=C(C)Oc2nc3c(c(N)c2C1c1cc2ccc(OC)cc2nc1Cl)CCCCC3 (stereo not drawn)
125

Value lookup for viability at 24 h, 5 µM; key = CCOC(=O)C1=C(C)Oc2nc3c(c(N)c2C1c1cc2cc(C)ccc2nc1Cl)CCCC3 (stereo not drawn)
101

// lookup viability at 24 h, 5 µM for CCOC(=O)C1=C(C)Oc2nc3c(c(N)c2C1c1cc2ccc(OC)cc2nc1Cl)CCCC3 (stereo not drawn)
131

###

# targetSystem: Acetylcholinesterase (Electrophorus electricus)
# Sequence (O42275 whole entry): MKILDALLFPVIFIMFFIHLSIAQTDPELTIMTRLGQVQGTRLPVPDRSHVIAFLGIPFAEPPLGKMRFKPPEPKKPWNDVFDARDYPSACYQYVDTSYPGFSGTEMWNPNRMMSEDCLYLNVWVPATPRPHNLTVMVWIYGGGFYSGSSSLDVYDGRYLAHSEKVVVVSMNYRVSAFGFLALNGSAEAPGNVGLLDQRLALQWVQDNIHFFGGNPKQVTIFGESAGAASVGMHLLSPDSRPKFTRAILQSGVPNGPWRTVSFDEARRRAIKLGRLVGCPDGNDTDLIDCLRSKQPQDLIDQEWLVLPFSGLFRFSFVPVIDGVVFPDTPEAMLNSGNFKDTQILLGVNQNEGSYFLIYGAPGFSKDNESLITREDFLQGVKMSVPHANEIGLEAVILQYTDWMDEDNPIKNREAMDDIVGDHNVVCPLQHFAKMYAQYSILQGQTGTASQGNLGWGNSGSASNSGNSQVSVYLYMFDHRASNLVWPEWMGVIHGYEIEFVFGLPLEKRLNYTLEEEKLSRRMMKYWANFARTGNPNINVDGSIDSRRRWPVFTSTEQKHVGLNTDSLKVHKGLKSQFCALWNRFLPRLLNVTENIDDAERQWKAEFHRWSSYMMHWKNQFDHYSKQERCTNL
IC50 values for the compounds below.
Answer as a quantity: numeral, then unit.

Examples with their reported IC50 follow.
compound: CCOC(=O)C1=C(C)Oc2nc3c(c(N)c2C1c1cc2ccc(OC)cc2nc1Cl)CCC3 (centres undefined)
IC50: 4020 nM
//
compound: COc1ccc2cc(C3C4=C(CC(C)(C)CC4=O)Oc4nc5c(c(N)c43)CCCCC5)c(Cl)nc2c1 (centres undefined)
IC50: 2810 nM
//
compound: COC(=O)C1=C(C)Oc2nc3c(c(N)c2C1c1cc2ccc(OC)cc2nc1Cl)CCC3 (centres undefined)
IC50: 1660 nM

Please find the next compound below.
Give its IC50 value. Item: CCOC(=O)C1=C(C)Oc2nc3c(c(N)c2C1c1cc2cc(OC)ccc2nc1Cl)CCCC3 (centres undefined)
2230 nM

###

Here the recorded viability at 24 h, 10 µM is given for each entry.
# procedureText: in vitro
# recordedConditions: human, SH-SY5Y cells
# Description: Neurotoxicity in human SH-SY5Y cells assessed as cell viability at 10 uM after 24 hrs by XTT assay relative to control
Write it as a number; the unit % goes unstated.

Worked set:
compound: CCOC(=O)C1=C(C)Oc2nc3c(c(N)c2C1c1cc2cc(C)ccc2nc1Cl)CCCC3 (stereo not drawn)
unitTag: %
viability at 24 h, 10 µM: 97.2
--
compound: COC(=O)C1=C(C)Oc2nc3c(c(N)c2C1c1cc2ccc(OC)cc2nc1Cl)CCCCC3 (stereo not drawn)
unitTag: %
viability at 24 h, 10 µM: 85.1
--
compound: COC(=O)C1=C(C)Oc2nc3c(c(N)c2C1c1cc2ccc(OC)cc2nc1Cl)CCC3 (stereo not drawn)
unitTag: %
viability at 24 h, 10 µM: 98
--
compound: COc1ccc2cc(C3C4=C(CC(C)(C)CC4=O)Oc4nc5c(c(N)c43)CCC5)c(Cl)nc2c1 (stereo not drawn)
unitTag: %
viability at 24 h, 10 µM: 102
--
compound: COc1ccc2cc(C3C4=C(CC(C)(C)CC4=O)Oc4nc5c(c(N)c43)CCCCC5)c(Cl)nc2c1 (stereo not drawn)
unitTag: %
viability at 24 h, 10 µM: 97.3

Any idea what its viability at 24 h, 10 µM is? The compound is CCOC(=O)C1=C(C)Oc2nc3c(c(N)c2C1c1cc2ccc(OC)cc2nc1Cl)CCCCC3 (stereo not drawn)
106

Reported viability at 24 h, 10 µM for COc1ccc2cc(C3C4=C(CC(C)(C)CC4=O)Oc4nc5c(c(N)c43)CCCC5)c(Cl)nc2c1 (stereo not drawn) : what is it?
103

What does the record list as viability at 24 h, 10 µM for CCOC(=O)C1=C(C)Oc2nc3c(c(N)c2C1c1cc2cc(OC)ccc2nc1Cl)CCCC3 (stereo not drawn) ?
116

Look at this compound and give its reported viability at 24 h, 10 µM. CCOC(=O)C1=C(C)Oc2nc3c(c(N)c2C1c1cc2ccc(OC)cc2nc1Cl)CCC3 (stereo not drawn)
116

Recorded viability at 24 h, 10 µM for CCOC(=O)C1=C(C)Oc2nc3c(c(N)c2C1c1cc2cccc(OC)c2nc1Cl)CCCC3 (stereo not drawn) , please?
96.5

Fill blank: measured viability at 24 h, 10 µM of the compound CCOC(=O)C1=C(C)Oc2nc3c(c(N)c2C1c1cc2ccc(OC)cc2nc1Cl)CCCC3 (stereo not drawn) is ____.
125

Can you share its viability at 24 h, 10 µM? I mean this compound: COC(=O)C1=C(C)Oc2nc3c(c(N)c2C1c1cc2ccc(OC)cc2nc1Cl)CCCC3 (stereo not drawn)
113

Can you look up the measured viability at 24 h, 10 µM of CCOC(=O)C1=C(C)Oc2nc3c(c(N)c2C1c1cc2ccccc2nc1Cl)CCCC3 (stereo not drawn) for me?
96.5

###

# targetSystem: Cholinesterase (Equus caballus)
# procedureText: Inhibition of horse serum BuChE using […] as substrate at 50 uM preincubated for 15 mins followed by substrate addition by Ellman's method relative to control
property: inhibition (%)
Field: numeric (%). Do not append units.

Some molecules with known inhibition results, for comparison:
molecule: COC(=O)C1=C(C)Oc2nc3c(c(N)c2C1c1cc2ccc(OC)cc2nc1Cl)CCCC3 (stereo not given)
unitTag: %
reportedResult: 50
--
molecule: COC(=O)C1=C(C)Oc2nc3c(c(N)c2C1c1cc2ccc(OC)cc2nc1Cl)CCCCC3 (stereo not given)
unitTag: %
reportedResult: 50
--
molecule: CCOC(=O)C1=C(C)Oc2nc3c(c(N)c2C1c1cc2ccc(OC)cc2nc1Cl)CCCC3 (stereo not given)
unitTag: %
reportedResult: 50

Quick one: inhibition of CCOC(=O)C1=C(C)Oc2nc3c(c(N)c2C1c1cc2cc(C)ccc2nc1Cl)CCCC3 (stereo not given) ?
50

I'd like to know its inhibition. The molecule in question is CCOC(=O)C1=C(C)Oc2nc3c(c(N)c2C1c1cc2ccccc2nc1Cl)CCCC3 (stereo not given)
50
